Overview of reported DC50 across a group of molecules:
Target: BRAF D594G (Homo sapiens, UniProt P15056, D594G)
Construct: Horizon Discovery (HCT-116 BRAF−/− cells); host or cells: HCT-116 BRAF−/− cells, clone 63, lentiviral transduction
Sequence (P15056 whole entry D594G): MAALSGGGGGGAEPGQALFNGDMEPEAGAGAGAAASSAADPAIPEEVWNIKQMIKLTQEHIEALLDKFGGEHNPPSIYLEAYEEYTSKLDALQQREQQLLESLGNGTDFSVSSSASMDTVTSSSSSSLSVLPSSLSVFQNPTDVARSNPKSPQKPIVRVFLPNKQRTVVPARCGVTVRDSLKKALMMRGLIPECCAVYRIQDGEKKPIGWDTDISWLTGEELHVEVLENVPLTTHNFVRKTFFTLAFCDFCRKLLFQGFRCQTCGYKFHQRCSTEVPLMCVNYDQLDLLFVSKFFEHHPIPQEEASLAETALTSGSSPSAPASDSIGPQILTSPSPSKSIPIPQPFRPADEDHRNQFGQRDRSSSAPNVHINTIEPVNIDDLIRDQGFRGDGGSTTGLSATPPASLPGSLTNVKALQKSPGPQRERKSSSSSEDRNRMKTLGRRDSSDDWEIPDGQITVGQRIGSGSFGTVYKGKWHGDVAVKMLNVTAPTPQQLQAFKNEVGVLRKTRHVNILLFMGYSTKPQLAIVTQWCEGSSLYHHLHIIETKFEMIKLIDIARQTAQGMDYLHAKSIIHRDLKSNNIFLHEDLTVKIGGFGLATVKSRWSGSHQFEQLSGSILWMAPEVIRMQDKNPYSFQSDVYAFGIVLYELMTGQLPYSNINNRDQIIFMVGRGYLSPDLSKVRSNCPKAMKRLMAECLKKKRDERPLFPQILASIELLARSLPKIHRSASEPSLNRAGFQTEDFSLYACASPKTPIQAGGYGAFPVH
Test: BRAF HiBiT degradation assay, C-terminal HiBiT-tagged BRAF D594G overexpressed in HCT-116 BRAF−/− cells (clone 63), Nano-Glo HiBiT Lytic assay
Type: cell-based
Settings: BRAF D594G (Class 3), HCT-116 BRAF−/− cells; DC50 at 50% degradation
Protocol: An A375 cell line expressing a homozygous V600E mutation was purchased from ATCC (Manassas, VA, USA). […] HiBiT signal was measured by a Nano-Glo HiBiT Lytic assay (Promega cat. no. N3050). […] Luminesce units (LU) were read on an EnVision plate reader 2105 (Perkin Elmer). Percent protein remaining and viability remaining per sample were calculated as follows: […]

[
  {
    "molecule": "O=C1CCN(c2ccc(N3CCC(CN4CCN(c5ccc(-n6cc(-c7cc(Cl)cc(NS(=O)(=O)N8CCCC8)c7F)c(-c7ccncc7)n6)cc5)CC4)CC3)cc2)C(=O)N1 [Compound 283]",
    "DC50": "< 10 nM"
  },
  {
    "molecule": "CCCS(=O)(=O)Nc1cccc(-c2nc(C3CCC4(CC3)CCN(C(=O)C3CCN(c5ccc(C6CCC(=O)NC6=O)cn5)CC3)CC4)sc2-c2ccnc(N)n2)c1F (racemic) [Compound 246]",
    "DC50": "> 500 nM"
  },
  {
    "molecule": "O=C1CC[C@H](c2ccc(N3CCC(CN4CCN(c5ccc(-n6cc(-c7cc(Cl)cc(NS(=O)(=O)N8CCCC8)c7F)c(-c7ccncc7)n6)cn5)CC4)CC3)cc2)C(=O)N1 [Compound 351]",
    "DC50": "< 10 nM"
  },
  {
    "molecule": "O=C1CC[C@H](c2ccc(N3CCC(CN4CCN(c5ccc(-n6cc(-c7cc(F)cc(NS(=O)(=O)N8CCCC8)c7F)c(-c7ccncc7)n6)cc5)CC4)CC3)nc2)C(=O)N1 [Compound 301]",
    "DC50": "< 10 nM"
  }
]

(Q) Identify measured DC50 corresponding to O=C1CC[C@@H](c2ccc(N3CCC(CN4CCN(c5ccc(-n6cc(-c7cc(Cl)cc(NS(=O)(=O)N8CCCC8)c7F)c(-c7ccncc7)n6)nc5)CC4)CC3)nc2)C(=O)N1 [Compound 383]
(A) < 10 nM

---

Molecular target: BRAF V600E (Homo sapiens, UniProt P15056, V600E)
Construct: endogenous C-terminal HiBiT fusion tag on BRAF V600E allele; endogenous in cells; host or cells: A375 clone 1F10 (CRISPR-Cas9 knock-in of the HiBiT tag; parental A375 from ATCC)
Sequence (P15056 whole entry V600E, the tested form may be a part): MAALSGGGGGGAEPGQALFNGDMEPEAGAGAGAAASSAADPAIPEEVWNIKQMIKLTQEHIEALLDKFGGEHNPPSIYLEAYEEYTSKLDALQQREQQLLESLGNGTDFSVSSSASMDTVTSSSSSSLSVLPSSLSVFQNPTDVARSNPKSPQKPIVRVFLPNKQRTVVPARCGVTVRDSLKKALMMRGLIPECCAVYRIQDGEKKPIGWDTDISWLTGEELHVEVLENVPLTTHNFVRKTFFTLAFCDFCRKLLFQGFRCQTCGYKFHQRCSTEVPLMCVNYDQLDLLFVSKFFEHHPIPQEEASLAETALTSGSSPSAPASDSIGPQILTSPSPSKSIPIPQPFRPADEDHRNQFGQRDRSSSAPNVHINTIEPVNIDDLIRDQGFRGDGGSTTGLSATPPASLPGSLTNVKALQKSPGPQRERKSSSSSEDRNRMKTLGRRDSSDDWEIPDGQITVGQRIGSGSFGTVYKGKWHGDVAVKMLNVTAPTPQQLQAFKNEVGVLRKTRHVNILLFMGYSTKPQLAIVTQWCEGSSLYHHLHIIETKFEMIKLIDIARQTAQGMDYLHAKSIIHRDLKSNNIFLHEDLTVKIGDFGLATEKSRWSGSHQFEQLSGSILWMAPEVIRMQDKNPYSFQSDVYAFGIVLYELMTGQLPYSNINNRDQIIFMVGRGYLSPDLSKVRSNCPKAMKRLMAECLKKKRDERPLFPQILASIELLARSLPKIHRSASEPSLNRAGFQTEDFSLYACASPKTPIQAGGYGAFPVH
Assay: BRAF HiBiT degradation assay, C-terminal HiBiT-tagged BRAF V600E A375 cells (clone 1F10), Nano-Glo HiBiT Lytic assay
Format: cell-based
Settings: A-375; A375 (BRAF V600E); percentage protein degraded at maximal compound effect relative to DMSO
recordedEndpoint: Dmax

# annotated cases, reported Dmax shown
[
  {
    "molecule": "CCCS(=O)(=O)Nc1cccc(-c2nc(-c3ccc(C4CCN(C(=O)C5CCN(c6ccc(C7CCC(=O)NC7=O)cn6)CC5)CC4)cc3)sc2-c2ccnc(N)n2)c1F (racemic)",
    "recordedEndpoint": "Dmax",
    "val": "30 to 70%"
  },
  {
    "molecule": "CCCS(=O)(=O)Nc1cccc(-c2nc(C3CCN(C(=O)C4CCN(C(=O)C5CCN(c6ccc(C7CCC(=O)NC7=O)cn6)CC5)CC4)CC3)sc2-c2ccncn2)c1F (racemic)",
    "recordedEndpoint": "Dmax",
    "val": "> 70%"
  },
  {
    "molecule": "CCCS(=O)(=O)Nc1cccc(-c2nc(C(C)(C)C)sc2-c2ccnc(Nc3ccc(C4CCN(C(=O)CN5CCN(c6cc(C7CCC(=O)NC7=O)ccn6)CC5)CC4)cc3)n2)c1F (racemic)",
    "recordedEndpoint": "Dmax",
    "val": "> 70%"
  }
]

(Q) Identify measured Dmax corresponding to CCCS(=O)(=O)Nc1cccc(-c2nc(C(C)(C)C)sc2-c2ccnc(Nc3ccc(C4CCN(CC5CCN(c6ccc([C@H]7CCC(=O)NC7=O)cc6)CC5)CC4)cc3)n2)c1F
(A) > 70%

(Q) Identify measured Dmax corresponding to CCN(C)S(=O)(=O)Nc1cccc(-c2nc(C)sc2-c2ccnc(Nc3ccc(N4CCN(CC5CCN(c6ccc([C@H]7CCC(=O)NC7=O)cn6)CC5)CC4)cn3)n2)c1F
(A) > 70%

---

Overview of reported Dmax across a group of compounds:
Target: BRAF V600E (Homo sapiens, UniProt P15056, V600E)
Construct: endogenous C-terminal HiBiT fusion tag on BRAF V600E allele; endogenous in cells; host or cells: A375 clone 1F10 (CRISPR-Cas9 knock-in of the HiBiT tag; parental A375 from ATCC)
Experiment: BRAF HiBiT degradation assay, C-terminal HiBiT-tagged BRAF V600E A375 cells (clone 1F10), Nano-Glo HiBiT Lytic assay
Type: cell-based
Details: A-375; A375 (BRAF V600E); percentage protein degraded at maximal compound effect relative to DMSO

[
  {
    "compound": "CCCS(=O)(=O)Nc1cccc(-c2cn(-c3ccc(N4CCN(CC5CCN(c6ccc([C@@H]7CCC(=O)NC7=O)cn6)CC5)CC4)cc3)nc2-c2ccncc2)c1F",
    "testedTarget": "BRAF V600E (Homo sapiens, UniProt P15056, V600E)",
    "Dmax": "> 70%"
  },
  {
    "compound": "CCCS(=O)(=O)Nc1cccc(-c2nc(-c3ccc(N4CCN(C(=O)CC5CCN(c6ccc(C7CCC(=O)NC7=O)cn6)CC5)CC4)cc3)sc2-c2ccnc(N)n2)c1F (racemic)",
    "testedTarget": "BRAF V600E (Homo sapiens, UniProt P15056, V600E)",
    "Dmax": "> 70%"
  },
  {
    "compound": "CCCS(=O)(=O)Nc1cccc(-c2nc(-c3ccc(N4CCN(C(=O)C5CCN(c6ccc(C7CCC(=O)NC7=O)cn6)CC5)CC4)cc3)sc2-c2ccnc(N)n2)c1F (racemic)",
    "testedTarget": "BRAF V600E (Homo sapiens, UniProt P15056, V600E)",
    "Dmax": "> 70%"
  },
  {
    "compound": "CCCS(=O)(=O)Nc1cccc(-c2cn(-c3ccc(N4CCN(CC5CCN(c6ccc(C7CCC(=O)NC7=O)cn6)CC5)CC4)nc3)nc2-c2ccncc2)c1F (racemic)",
    "testedTarget": "BRAF V600E (Homo sapiens, UniProt P15056, V600E)",
    "Dmax": "> 70%"
  },
  {
    "compound": "CCCS(=O)(=O)Nc1cccc(-c2nc(C(C)(C)C)sc2-c2ccnc(Nc3cccc(C4CCN(CC[C@@H]5CCN(c6ccc(C7CCC(=O)NC7=O)cn6)C5)CC4)c3)n2)c1F (mixture of isomers)",
    "testedTarget": "BRAF V600E (Homo sapiens, UniProt P15056, V600E)",
    "Dmax": "> 70%"
  },
  {
    "compound": "CCCS(=O)(=O)Nc1cccc(-c2cn(-c3ccc(N4CCN(C(=O)C5CCN(c6ccc(C7CCC(=O)NC7=O)cc6)CC5)CC4)cc3)nc2-c2ccncc2)c1F (racemic)",
    "testedTarget": "BRAF V600E (Homo sapiens, UniProt P15056, V600E)",
    "Dmax": "30 to 70%"
  }
]

(Q) Identify measured Dmax corresponding to CCCS(=O)(=O)Nc1cccc(-c2nc(C(C)(C)C)sc2-c2ccnc(Nc3cccc(OC4CCN(C(=O)C5CCN(c6cc(C7CCC(=O)NC7=O)ccn6)CC5)CC4)c3)n2)c1F (racemic)
(A) > 70%

(Q) Identify measured Dmax corresponding to CCCS(=O)(=O)Nc1cccc(-c2nc(C3CCN(C(=O)C4CCN(C(=O)CC5CCN(c6ccc(NC7CCC(=O)NC7=O)cc6)CC5)CC4)CC3)sc2-c2ccncn2)c1F (racemic)
(A) > 70%

(Q) Identify measured Dmax corresponding to CCCS(=O)(=O)Nc1cccc(-c2nc(-c3ccc(N4CCN(C(=O)C5CCN(c6ccc(C7CCC(=O)NC7=O)cc6)CC5)CC4)cc3)sc2-c2ccnc(N)n2)c1F (racemic)
(A) 30 to 70%

(Q) Identify measured Dmax corresponding to CCCS(=O)(=O)Nc1cccc(-c2cn(-c3ccc(C(=O)N4CCN(CC5CCN(c6ccc([C@@H]7CCC(=O)NC7=O)cc6)CC5)CC4)cc3)nc2-c2ccncc2)c1F
(A) 30 to 70%

---

Overview of reported Dmax across a group of molecules:
Target: BRAF V600E (Homo sapiens, UniProt P15056, V600E)
Construct: endogenous C-terminal HiBiT fusion tag on BRAF V600E allele; endogenous in cells; host or cells: A375 clone 1F10 (CRISPR-Cas9 knock-in of the HiBiT tag; parental A375 from ATCC)
Assay: BRAF HiBiT degradation assay, C-terminal HiBiT-tagged BRAF V600E A375 cells (clone 1F10), Nano-Glo HiBiT Lytic assay
Format: cell-based
Details: A-375; A375 (BRAF V600E); percentage protein degraded at maximal compound effect relative to DMSO

[
  {
    "molecule": "CCCS(=O)(=O)Nc1cccc(-c2nc(-c3ccc(C4CCN(C(=O)CC5CCN(c6ccc(C7CCC(=O)NC7=O)cn6)CC5)CC4)cc3)sc2-c2ccnc(N)n2)c1F (racemic)",
    "Dmax": "> 70%"
  }
]

(Q) Identify measured Dmax corresponding to CCCS(=O)(=O)Nc1cccc(-c2nc(C3CCN(C(=O)C4CCN(C(=O)C5CCN(c6ccc(C7CCC(=O)NC7=O)cc6)CC5)CC4)CC3)sc2-c2ccncn2)c1F (racemic)
(A) > 70%

(Q) Identify measured Dmax corresponding to CCCS(=O)(=O)Nc1cccc(-c2nc(C(C)(C)C)sc2-c2ccnc(Nc3cnn(C4CCN(C(=O)C5CCN(c6ccc(C(=O)NC7CCC(=O)NC7=O)nc6)CC5)CC4)c3)n2)c1F (racemic)
(A) 30 to 70%

Ref: patent US20260317324A1
